Data origin, for the record: patent US20240270821A1

molecular target: human GLP-1R (SNAP-GLP-1R expressed in HEK293 cells) (human) (UniProt P43220); experiment: cell-based or functional assay
Sequence (P43220 24-463): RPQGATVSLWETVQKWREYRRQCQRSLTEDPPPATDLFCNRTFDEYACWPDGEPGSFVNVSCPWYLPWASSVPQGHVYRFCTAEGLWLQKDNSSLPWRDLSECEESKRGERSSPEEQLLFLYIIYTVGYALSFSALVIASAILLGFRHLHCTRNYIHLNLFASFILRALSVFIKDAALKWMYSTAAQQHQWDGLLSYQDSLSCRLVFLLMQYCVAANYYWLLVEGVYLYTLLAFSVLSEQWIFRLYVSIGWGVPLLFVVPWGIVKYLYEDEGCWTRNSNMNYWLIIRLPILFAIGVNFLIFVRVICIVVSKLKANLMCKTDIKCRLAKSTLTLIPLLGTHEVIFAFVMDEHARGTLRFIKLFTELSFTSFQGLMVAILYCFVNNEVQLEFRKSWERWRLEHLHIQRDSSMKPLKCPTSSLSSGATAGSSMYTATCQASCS
Task for the reader: assign each of the following binders its reported GLP1R Internalization EC50.
Give just the numeric value; nM need not be written.

Qu. I have this binder here, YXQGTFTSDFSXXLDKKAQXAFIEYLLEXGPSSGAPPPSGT (synthetic construct; SITE 2: note = 2-Aminoisobutyric Acid; SITE 12: note = L-ornithine; SITE 13: note = alpha-methyl-leucine; SITE 17: note = Lysine is chemically modified through conjugation of the epsilon-amino group of the Lysine side chain with (2-[2-(2-Amino-ethoxy)-ethoxy]-acetyl)2-(gamma-Glu)) [Example 165] , and I need its recorded GLP1R Internalization EC50.
Ans. 57.5

Qu. I have this binder here, YXQGTFTSDXSKXLDKKAQXAFIEYLIEXGESSGAPPPSGS (synthetic construct; SITE 2: note = 2-Aminoisobutyric Acid; SITE 10: note = 3-(4-Pyridyl)-L-alanine; SITE 13: note = alpha-methyl-leucine; SITE 17: note = Lysine is chemically modified through conjugation of the epsilon-amino group of the Lysine side chain with (2-[2-(2-Amino-ethoxy)-ethoxy]-acetyl)) [Example 280] , and I need its recorded GLP1R Internalization EC50.
Ans. 39.4

Qu. I have this binder here, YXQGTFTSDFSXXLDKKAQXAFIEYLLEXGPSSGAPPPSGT (synthetic construct; SITE 2: note = 2-Aminoisobutyric Acid; SITE 12: note = L-ornithine; SITE 13: note = alpha-methyl-leucine; SITE 17: note = Lysine is chemically modified through conjugation of the epsilon-amino group of the Lysine side chain with (2-[2-(2-Amino-ethoxy)-ethoxy]-acetyl)-(gamma-Glu)) [Example 278] , and I need its recorded GLP1R Internalization EC50.
Ans. 251
